Molecular target: USP28 (His-tagged USP28-FL-mammalian) (Homo sapiens)
Construct: Expression of USP28 (1-1077)-TEV-6*His (pTT5 vector); made in house; host or cells: Expi293f cells (pTT5 vector)
Sequence (Q96RU2 whole entry): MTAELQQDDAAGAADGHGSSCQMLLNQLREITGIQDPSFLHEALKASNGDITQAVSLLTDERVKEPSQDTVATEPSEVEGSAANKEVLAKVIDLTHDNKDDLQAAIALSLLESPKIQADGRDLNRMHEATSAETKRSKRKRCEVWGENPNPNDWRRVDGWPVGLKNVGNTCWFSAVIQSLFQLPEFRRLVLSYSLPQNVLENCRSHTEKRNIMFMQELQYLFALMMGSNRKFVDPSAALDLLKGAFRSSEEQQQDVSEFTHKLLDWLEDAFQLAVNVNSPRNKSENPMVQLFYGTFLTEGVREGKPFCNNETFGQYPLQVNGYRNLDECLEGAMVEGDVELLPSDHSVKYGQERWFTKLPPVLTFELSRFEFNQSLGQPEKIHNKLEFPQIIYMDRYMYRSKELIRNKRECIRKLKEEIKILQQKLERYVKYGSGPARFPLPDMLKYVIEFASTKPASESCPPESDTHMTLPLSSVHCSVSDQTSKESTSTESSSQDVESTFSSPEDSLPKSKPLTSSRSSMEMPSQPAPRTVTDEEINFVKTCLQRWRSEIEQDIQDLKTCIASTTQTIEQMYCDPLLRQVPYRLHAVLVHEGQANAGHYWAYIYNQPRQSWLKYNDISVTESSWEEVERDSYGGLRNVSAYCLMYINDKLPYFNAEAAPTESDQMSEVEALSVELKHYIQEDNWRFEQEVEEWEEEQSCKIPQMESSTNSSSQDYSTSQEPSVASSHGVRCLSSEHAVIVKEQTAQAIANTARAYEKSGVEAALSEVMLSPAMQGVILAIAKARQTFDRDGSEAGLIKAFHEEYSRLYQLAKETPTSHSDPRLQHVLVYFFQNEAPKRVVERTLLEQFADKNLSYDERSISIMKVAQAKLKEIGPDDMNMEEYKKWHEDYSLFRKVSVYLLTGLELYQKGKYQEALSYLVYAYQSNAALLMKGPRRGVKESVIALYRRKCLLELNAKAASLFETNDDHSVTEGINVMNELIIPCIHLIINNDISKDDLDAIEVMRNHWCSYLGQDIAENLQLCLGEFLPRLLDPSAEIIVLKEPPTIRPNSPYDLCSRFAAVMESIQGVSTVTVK
Assay: Ubiquitin-Rhodamine 110 Assay for USP28 Activity, Example A-1(a)
Assay type: biochemical
Settings: Ubiquitin-Rhodamine 110 assay, Example A-1(a); read-out: USP28 A-1(a) IC50 range
pIC50: −log10 of the molar value.
Documented pIC50 across a set of compounds

Consider the reported pIC50 for these compounds:
CO[C@]1(C)CN(c2ccc3c(n2)CC[C@H](NC(=O)c2sc4nc(C)ccc4c2N)C3)C[C@H]1N [Example 211]; 6.70 to 7.30
Cc1ccc2c(N)c(C(=O)N[C@H]3COc4cc(O[C@@H]5COC6(CNC6)C5)ccc4C3)sc2n1 (single isomer, unassigned) [Example 9-1]; 7.30 to 9.00
COc1ccn2ncc(C(=O)N[C@H]3COc4cc(N5CCNCC5)ccc4C3)c2c1 [Example 461]; < 5.70
Cc1ccc2c(N)c(C(=O)N[C@H]3COc4cc([C@H]5CCNC[C@H]5O)ccc4C3)sc2n1 [Example 62]; 7.30 to 9.00
Cc1ccc2c(N)c(C(=O)N[C@H]3COc4cc(N5C[C@@H](N)[C@H](F)C5)ccc4C3)sc2n1 [Example 3-8]; 7.30 to 9.00
CO[C@H]1CN(c2ccc3c(c2)OC[C@H](NC(=O)c2sc4nc(C)sc4c2N)C3)C[C@@H]1N [Example 118]; 6.70 to 7.30
Cc1ccc2c(N)c(C(=O)N[C@H]3COc4cc(N5CC6CNCC(C5)O6)cc(F)c4C3)sc2n1 [Example 10-6]; 7.30 to 9.00
CCO[C@H]1CN(c2ccc3c(c2)OC[C@H](NC(=O)c2sc4nc(C)ccc4c2N)C3)C[C@@H]1N [Example 115]; 7.30 to 9.00
CCc1cnc2sc(C(=O)N[C@H]3COc4cc(N5CCNCC5)ccc4C3)c(N)c2n1 [Example 36]; 5.70 to 6.70
CO[C@@H]1[C@@H](N)CN(c2ccc3c(c2)OC[C@H](NC(=O)c2sc4nc(C)ccc4c2N)C3)[C@H]1C [Example 283]; 7.30 to 9.00

# input compound: Cc1ccc2c(N)c(C(=O)N[C@H]3COc4cc(N5CCS(=O)(=O)CC5)ccc4C3)sc2n1 [Example 5-2] ; wanted: its pIC50 7.30 to 9.00

# input compound: Cc1ccc2c(N)c(C(=O)N[C@H]3CCc4nc(N5CCNCC5)ccc4C3)sc2n1 (single isomer, unassigned) [Example 23-7] ; wanted: its pIC50 7.30 to 9.00

# input compound: Cc1ccc2c(N)c(C(=O)N[C@@H]3CCc4cc(N5CCNCC5)cc(F)c4C3)sc2n1 (single isomer, unassigned) [Example 11-12] ; wanted: its pIC50 7.30 to 9.00

# input compound: CCn1ccc2cc(C(=O)N[C@H]3CCc4cc(N5CC6CCC(C5)N6)ccc4C3)nnc21 (single isomer, unassigned) [Example 11-24] ; wanted: its pIC50 5.70 to 6.70

# input compound: Cc1cc(C)n2ncc(C(=O)N[C@H]3COc4cc(N5CCNCC5)ccc4C3)c2n1 [Example 463] ; wanted: its pIC50 < 5.70

# input compound: COC[C@H]1C[C@@H](N)CN1c1ccc2c(c1)OC[C@H](NC(=O)c1sc3nc(C)ccc3c1N)C2 [Example 262] ; wanted: its pIC50 7.30 to 9.00

# input compound: Cc1ccc2c(N)c(C(=O)N[C@H]3COc4nc(N5C[C@H](OC(C)C)[C@@H](N)C5)ccc4C3)sc2n1 [Example 287] ; wanted: its pIC50 5.70 to 6.70

# input compound: Cc1ccc2c(N)c(C(=O)N[C@H]3COc4cc(N5C[C@H](N)CC[C@@H]5C(F)(F)F)ccc4C3)sc2n1 [Example 244] ; wanted: its pIC50 7.30 to 9.00

# input compound: CO[C@@H]1CN(c2ccc3c(n2)CC[C@H](NC(=O)c2sc4nc(C)ccc4c2N)C3)C[C@@H]1N [Example 269] ; wanted: its pIC50 6.70 to 7.30

# input compound: Cc1ccc2c(N)c(C(=O)N[C@H]3COc4cc(N5C[C@H](N)[C@H](C(F)F)C5)ccc4C3)sc2n1 [Example 167] ; wanted: its pIC50 7.30 to 9.00

# input compound: C[C@@H](Nc1ccc(C(=O)N[C@H]2COc3cc(N4CCNCC4)ccc3C2)cn1)c1ccccc1 [Example 54] ; wanted: its pIC50 < 5.70

# input compound: COC[C@@H]1C[C@H](N)CN1c1ccc2c(c1)OC[C@H](NC(=O)c1sc3nc(C)ccc3c1N)C2 [Example 263] ; wanted: its pIC50 7.30 to 9.00

====

Molecular target: USP28 (USP28-5(1-1077)-TEV-6*His; LifeSensors) (Homo sapiens)
Construct: construct USP28 (USP28-5(1-1077)-TEV-6*His; LifeSensors); TEV cleavage site (C); 6xHis (C); purchased LifeSensors
Sequence (Q96RU2 whole entry): as above
Assay: Ubiquitin-Rhodamine 110 Assay for USP28 Activity, Example A-1(b)
Format: biochemical
Conditions: Ub-Rh110 assay, Example A-1(b)
From the text: Example A-1(b): Biochemical Assay: Ubiquitin-Rhodamine 110 Assay for USP28 Activity […] For assay formats Example A-1(a), A-1(b), and A-2, data were reported as percent inhibition compared with control wells based on the following equation: % inh=1−((FLU−AveLow)/(AveHigh−AveLow)) where FLU=measured Fluorescence, AveLow=average Fluorescence of no enzyme control (n=16), and AveHigh=average Fluorescence of DMSO control (n=16). […]
measure: USP28 A-1(b) IC50 range

O=C(N[C@H]1COc2cc(N3CC4CCC(C3)N4)ccc2C1)c1cnc2c(c1)C1(CCN2)CC1; + (>2 μM)
CCn1ccc2cc(C(=O)N[C@@H]3COc4cc(N5CC6CCC(C5)N6)ccc4C3)cnc21 (single isomer, unassigned); + (>2 μM)

Provenance of the data: patent US11524966B1
